molecular target: FimH proteins (Escherichia coli, UniProt Q1R2J4); construct: endogenous in cells; host or cells: UPEC strain UTI89 (whole bacteria); assay: hemagglutination inhibition (HAI) assay: UPEC UTI89 with guinea pig red blood cells; type: cell-based, uropathogenic Escherichia coli (UPEC) UTI89; settings: read-out: HAI EC90 (minimum concentration for inhibiting hemagglutination)
recorded_metric: EC90

test_smiles | EC90
COc1ccc(-n2cc(C#C[C@H]3O[C@H](CO)[C@@H](O)[C@H](O)[C@@]3(O)C#Cc3cnn(C)c3)cn2)cc1 | < 0.1 nM

Supply EC90 value. Item: OC[C@H]1O[C@H](C#Cc2cnn(-c3cccc(F)c3)c2)[C@](O)(C#Cc2ccccc2)[C@@H](O)[C@@H]1O
0.25 nM

Supply EC90 value. Item: OC[C@H]1O[C@H](C#Cc2cnn(-c3ccccc3Cl)c2)[C@](O)(C#CC2CC2)[C@@H](O)[C@@H]1O
8 nM

Supply EC90 value. Item: CCOc1ccc(-n2cc(C#C[C@H]3O[C@H](CO)[C@@H](O)[C@H](O)[C@@]3(O)C#CC3CC3)cn2)cc1
< 0.1 nM

Supply EC90 value. Item: OC[C@H]1O[C@H](C#Cc2cnn(-c3ccc(OCC4CC4)cc3)c2)[C@](O)(C#CC2CC2)[C@@H](O)[C@@H]1O
< 0.1 nM

Supply EC90 value. Item: COc1ccc(-n2cc(C#C[C@H]3O[C@H](CO)[C@@H](O)[C@H](O)[C@@]3(O)C#CC3CC3)cn2)cc1
< 0.1 nM

----------
biological target: FimH proteins (Escherichia coli, UniProt Q1R2J4); construct: endogenous in cells; host or cells: UPEC strain UTI89 (whole bacteria); experiment: hemagglutination inhibition (HAI) assay: UPEC UTI89 with guinea pig red blood cells; type: cell-based, uropathogenic Escherichia coli (UPEC) UTI89; conditions: read-out: HAI EC90 (minimum concentration for inhibiting hemagglutination)
Each entry below carries its recorded log10(EC90).
Values are log10 of EC90 in nM.

compound | test_system | log10(EC90)
OC[C@H]1O[C@H](C#Cc2cnn([C@H]3CC[C@H](O)CC3)c2)[C@](O)(C#Cc2ccccc2)[C@@H](O)[C@@H]1O | FimH proteins (Escherichia coli, UniProt Q1R2J4) | 0.30
CCC(CC)O[C@H]1O[C@H](CO)[C@@H](O)[C@H](O)[C@@]1(O)C#Cc1ccccc1 | FimH proteins (Escherichia coli, UniProt Q1R2J4) | 2.11
OC[C@H]1O[C@H](C#Cc2ccccc2)[C@](O)(C#Cc2cccc(C3CC3)c2)[C@@H](O)[C@@H]1O | FimH proteins (Escherichia coli, UniProt Q1R2J4) | 2.41

Provide measured log10(EC90) on FimH proteins (Escherichia coli, UniProt Q1R2J4) for OC[C@H]1O[C@H](C#Cc2cccc(-c3ccccc3)c2)[C@](O)(C#Cc2ccccc2)[C@@H](O)[C@@H]1O please.
2.11

Provide measured log10(EC90) on FimH proteins (Escherichia coli, UniProt Q1R2J4) for Cn1cc(C#C[C@H]2O[C@H](CO)[C@@H](O)[C@H](O)[C@@]2(O)C#Cc2ccccc2)cn1 please.
1.81

Provide measured log10(EC90) on FimH proteins (Escherichia coli, UniProt Q1R2J4) for OC[C@H]1O[C@H](C#Cc2cnn(-c3ccc(Cl)cc3)c2)[C@](O)(C#Cc2cccnc2)[C@@H](O)[C@@H]1O please.
0.90

Provide measured log10(EC90) on FimH proteins (Escherichia coli, UniProt Q1R2J4) for OC[C@H]1O[C@H](OC2CCC(F)(F)CC2)[C@](O)(C#Cc2ccccc2)[C@@H](O)[C@@H]1O please.
3.02

Provide measured log10(EC90) on FimH proteins (Escherichia coli, UniProt Q1R2J4) for OC[C@H]1O[C@H](C#Cc2cnn(CC3CC3)c2)[C@](O)(C#Cc2ccccc2)[C@@H](O)[C@@H]1O please.
0.60

Provide measured log10(EC90) on FimH proteins (Escherichia coli, UniProt Q1R2J4) for OC[C@H]1O[C@H](C#Cc2cnn(Cc3ccccc3)c2)[C@](O)(C#Cc2ccccc2)[C@@H](O)[C@@H]1O please.
1.51

Provide measured log10(EC90) on FimH proteins (Escherichia coli, UniProt Q1R2J4) for OC[C@H]1O[C@H](C#Cc2cnn(C3CCCOC3)c2)[C@](O)(C#Cc2ccccc2)[C@@H](O)[C@@H]1O (stereo partly drawn) please.
1.20
